- Test system: Streptococcus pneumoniae
- EXPERIMENT NOTES: VITEK2 Compact AST (AST-GP68 cards) with penicillin disc diffusion, gold standard culture-based AST; note: key: ‘R’ indicates drug-resistant; ‘S’ indicates drug-susceptible
- Format: cell-based
- CONDITION DESCRIPTION: blind 2
READOUT KIND: blind 2 by AST

Recorded results for 4 compounds are shown here.
[
  {
    "COMPOUND": "CN[C@H](CC(C)C)C(=O)N[C@H]1C(=O)N[C@@H](CC(N)=O)C(=O)N[C@H]2C(=O)N[C@H]3C(=O)N[C@H](C(=O)N[C@H](C(=O)O)c4cc(O)cc(O)c4-c4cc3ccc4O)[C@H](O)c3ccc(c(Cl)c3)Oc3cc2cc(c3O[C@@H]2O[C@H](CO)[C@@H](O)[C@H](O)[C@H]2O[C@H]2C[C@](C)(N)[C@H](O)[C@H](C)O2)Oc2ccc(cc2Cl)[C@H]1O [vancomycin]",
    "STUDY TARGET": "Streptococcus pneumoniae",
    "ASSAY RESULT": "S"
  },
  {
    "COMPOUND": "CN(C)[C@@H]1C(O)=C(C(N)=O)C(=O)[C@@]2(O)C(O)=C3C(=O)c4c(O)cccc4[C@@](C)(O)[C@H]3C[C@@H]12 [tetracycline]",
    "STUDY TARGET": "Streptococcus pneumoniae",
    "ASSAY RESULT": "R"
  },
  {
    "COMPOUND": "CO/N=C(\\C(=O)N[C@@H]1C(=O)N2C(C(=O)[O-])=C(C[N+]3(C)CCCC3)CS[C@H]12)c1csc(N)n1 [cefepime]",
    "STUDY TARGET": "Streptococcus pneumoniae",
    "ASSAY RESULT": "R"
  },
  {
    "COMPOUND": "CO/N=C(\\C(=O)N[C@@H]1C(=O)N2C(C(=O)O)=C(CSc3nc(=O)c(=O)[nH]n3C)CS[C@H]12)c1csc(N)n1 [ceftriaxone]",
    "STUDY TARGET": "Streptococcus pneumoniae",
    "ASSAY RESULT": "R"
  }
]

Note blind 2 by AST for the compound shown: CC(=O)NC[C@H]1CN(c2ccc(N3CCOCC3)c(F)c2)C(=O)O1 [linezolid]
S

====

- Test system: Enterococcus faecalis
- EXPERIMENT NOTES: VITEK2 Compact AST (AST-P639 cards), gold standard culture-based AST; note: key: ‘R’ indicates drug-resistant; ‘S’ indicates drug-susceptible
- Type: cell-based
- CONDITION DESCRIPTION: Resistance profile classification J
READOUT KIND: Susceptibility of Emterococcus faecalis to 11 antibacterial drugs

[
  {
    "STRUCTURE AS SMILES": "CN(C)[C@@H]1C(O)=C(C(N)=O)C(=O)[C@@]2(O)C(O)=C3C(=O)c4c(O)cccc4[C@@](C)(O)[C@H]3C[C@@H]12",
    "STUDY TARGET": "Enterococcus faecalis",
    "ASSAY RESULT": "R"
  },
  {
    "STRUCTURE AS SMILES": "CN(C)c1cc(NC(=O)CNC(C)(C)C)c(O)c2c1C[C@H]1C[C@H]3[C@H](N(C)C)C(O)=C(C(N)=O)C(=O)[C@@]3(O)C(O)=C1C2=O",
    "STUDY TARGET": "Enterococcus faecalis",
    "ASSAY RESULT": "S"
  },
  {
    "STRUCTURE AS SMILES": "CC[C@H]1OC(=O)[C@H](C)[C@@H](O[C@H]2C[C@@](C)(OC)[C@@H](O)[C@H](C)O2)[C@H](C)[C@@H](O[C@@H]2O[C@H](C)C[C@H](N(C)C)[C@H]2O)[C@](C)(O)C[C@@H](C)C(=O)[C@H](C)[C@@H](O)[C@]1(C)O",
    "STUDY TARGET": "Enterococcus faecalis",
    "ASSAY RESULT": "R"
  }
]
